These entries and their values trace back to patent US8524481B2.

tested on: protease from strain SRC002 (MTCC 5564); test: Effect of inhibitors, metals and chemicals on protease activity; format: biochemical, Pseudomonas aeruginosa; settings: concentration not given
measured-parameter: enzyme activity retained in the presence of metal (%)
Report as a plain number; the unit % is understood.

compound	tested-on	unit-of-measure	meas-value
[Pb] [Pb]	protease from strain SRC002 (MTCC 5564)	%	50
[Ag] [Ag]	protease from strain SRC002 (MTCC 5564)	%	76
[Cd] [Cd]	protease from strain SRC002 (MTCC 5564)	%	34
[Co] [Co]	protease from strain SRC002 (MTCC 5564)	%	82
[Cu] [Cu]	protease from strain SRC002 (MTCC 5564)	%	50
[Ni] [Ni]	protease from strain SRC002 (MTCC 5564)	%	70

Input: # enzyme activity retained in the presence of metal lookup, item [Al] [Al]
Output: 70

Input: # enzyme activity retained in the presence of metal lookup, item [Zn] [Zn]
Output: 34

###

system: protease from strain SRC002 (MTCC 5564); assay: Effect of inhibitors, metals and chemicals on protease activity; assay type: biochemical, Pseudomonas aeruginosa; settings: concentration not given; crude enzyme for the partial inhibitors
measured-parameter: effect on enzyme activity

CC(C)C[C@H](NC(=O)[C@@H](O)[C@H](N)Cc1ccccc1)C(=O)O no inhibitory effect
CC(C)C[C@H](NC(=O)[C@@H](NC(=O)N[C@@H](Cc1ccccc1)C(=O)O)[C@@H]1CCN=C(N)N1)C(=O)N[C@H](C=O)Cc1ccccc1 no inhibitory effect
